meta.source: PubChem BioAssay AID1963828

Tested on: 991263-137-R1-J2-PDC complex spheroid viability
Experiment: Anticancer human tumor 991263-137-R1-J2-PDC patient-derived colon adenocarcinoma cell line growth inhibition [POLQ]
Settings: curve of first compound; second compound 0.1 µM
pIC50: −log10 of the molar value.
For each entry below, report its pIC50 value.

Lookup: Bench note: what pIC50 did C=CC(=O)N1CCN(c2nc(=O)n(-c3c(C)ccnc3C(C)C)c3nc(-c4c(O)cccc4F)c(F)cc23)C(C)C1 (stereo not drawn) + Cc1cccc(N(C)C(=O)C2C(O)CCN2c2nc(C)cc(C(F)(F)F)c2C#N)c1 show?
Found: < 5.00

Lookup: Bench note: what pIC50 did CC(C)n1c(=O)n(C)c2cnc3cc(F)c(-c4ccc(OCCCN5CCCCC5)nc4)cc3c21 + Nc1ccc(C#CCN(C(=O)Cc2ncc(C(F)(F)F)cc2C(F)(F)F)c2ccc(F)cc2)nn1 show?
Found: < 5.00

Lookup: Bench note: what pIC50 did CC(=O)O[C@H]1C(=O)[C@@]2(C)[C@H]([C@H](OC(=O)c3ccccc3)[C@]3(O)C[C@H](OC(=O)[C@H](O)[C@@H](NC(=O)c4ccccc4)c4ccccc4)C(C)=C1C3(C)C)[C@]1(OC(C)=O)CO[C@@H]1C[C@@H]2O + Nc1ccc(C#CCN(C(=O)Cc2ncc(C(F)(F)F)cc2C(F)(F)F)c2ccc(F)cc2)nn1 show?
Found: < 5.52

====

Tested on: 991263-137-R1-J2-PDC complex spheroid viability
Assay: Anticancer human tumor 991263-137-R1-J2-PDC cell line growth inhibition [POLQ];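 note: spheroids exposed to compounds for 7 days before readout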;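 for viability, T/C: 100% = DMSO vehicle control viability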
Settings: second compound 0.0316 µM; first compound 0.0316 µM; stronger effect = lower value
Procedure: Multicellular complex tumor spheroid response to Polymerase (POL) inhibitors (novobiocin, ART-558, RP6685) in combination with a variety of drugs and investigational agents in selected tumor cell lines The POL inhibitors (novobiocin, ART-558, and RP6685) were evaluated both individually and in combination with standard of care and investigational anticancer small molecules within a complex spheroid model of solid tumors. . […]
For each entry below, report its viability, T/C value.
Provide the reading as a plain figure in %.

Lookup: Bench note: what viability, T/C did C=CC(=O)N1CCN(c2nc(=O)n(-c3c(C)ccnc3C(C)C)c3nc(-c4c(O)cccc4F)c(F)cc23)C(C)C1 (stereo not given) + Cc1cccc(N(C)C(=O)C2C(O)CCN2c2nc(C)cc(C(F)(F)F)c2C#N)c1 show?
Found: 104

Lookup: Bench note: what viability, T/C did CC[C@@]1(O)C(=O)OCc2c1cc1n(c2=O)Cc2cc3c(CN(C)C)c(O)ccc3nc2-1 + Nc1ccc(C#CCN(C(=O)Cc2ncc(C(F)(F)F)cc2C(F)(F)F)c2ccc(F)cc2)nn1 show?
Found: 99.8

Lookup: Bench note: what viability, T/C did Cn1ncnc1[C@H]1c2n[nH]c(=O)c3cc(F)cc(c23)N[C@@H]1c1ccc(F)cc1 + Cc1cccc(N(C)C(=O)C2C(O)CCN2c2nc(C)cc(C(F)(F)F)c2C#N)c1 show?
Found: 124

Lookup: Bench note: what viability, T/C did C=CC(=O)N1CCN(c2nc(=O)n(-c3c(C)ccnc3C(C)C)c3nc(-c4c(O)cccc4F)c(F)cc23)C(C)C1 (stereo not given) + COC1C(OC(N)=O)C(O)C(Oc2ccc3c(O)c(NC(=O)c4ccc(O)c(CC=C(C)C)c4)c(=O)oc3c2C)OC1(C)C show?
Found: 114

Lookup: Bench note: what viability, T/C did CCc1cc2c(N3CCc4c(cc(Cn5ccnc5)cc4-c4cn(C)nc4C(F)(F)F)C3=O)cc(C)nc2c(OC)n1 + Nc1ccc(C#CCN(C(=O)Cc2ncc(C(F)(F)F)cc2C(F)(F)F)c2ccc(F)cc2)nn1 show?
Found: 99.3
